Source listed as the supplement of paper PMC10567573.

Below, each entry is listed with its recorded protein stability index.
B1: ZNF449 (parent)
chain: CTHCSKSFRQRAGLIMHQVTHFRG

# Variants of: B1
# Test: protein stability index of a GFP-peptide fusion (GPS, HEK-293T) (PSI 1-6); higher = more stable;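 further: lentivirally expressed fusions sorted by FACS into six bins by GFP to DsRed ratio, PSI derived from sequencing read proportions per bin multiplied by bin number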
# Condition: c terminus: a fixed tail appended
Measured Parameter: protein stability index

H21I    2.39
F22M    2.18
I15M    2.49
T2D    1.86
G24C    2.53
Q10L    1.59
M16D    3.52
K6R    1.91
Q18P    3.9
G13Q    2.87
R23Q    2.6
